Test system: Paramphistomum
Assay: Anthelmintic activity against Paramphistomum assessed as mortality at 80 ug/ml after 2 hrs relative to control
Type: functional
measurementLabel: mortality at 80 µg/mL

chemicalstring=CCOC(=O)CSc1nnc(COc2ccc3nc(NC(=O)OC)sc3c2)o1 measurementlabel="mortality at 80 µg/mL" observedmeasurement=30%

Query: mortality at 80 µg/mL; subject: `COC(=O)Nc1nc2ccc(OCc3nnc(S)n3-c3ccc(C)cc3)cc2s1`
0%

Dear colleague, I am looking for the recorded mortality at 80 µg/mL of the following compound: `COC(=O)Nc1nc2ccc(OCc3nnc(SCC(=O)c4ccccc4)o3)cc2s1`
40%

Numbers sourced from ChEMBL document CHEMBL4261525.
